Data origin: ChEMBL document CHEMBL2429825

run description: Solubility of the compound by light scattering fluorescence spectrophotometry
Assay type: physicochemical
Lab note: compare solubility kinetic against 90 µM. Equal or greater, write criterion met. Smaller, write criterion not met.

Solved cases below.
Cc1nc2cc(Cl)ccc2n1CCC(=O)N/N=C/c1c(O)ccc2ccccc12 = criterion met
[N-]=[N+]=NCc1nc2ccccc2n1CCC(=O)N/N=C/c1c(O)ccc2ccccc12 = criterion not met
Cc1nc2ccccc2n1CCCC(=O)N/N=C/c1c(O)ccc2ccccc12 = criterion met
O=C(CCn1cnc2ccccc21)N/N=C/c1c(O)ccc2ccccc12 = criterion not met
O=C(CCn1c(C(F)(F)F)nc2ccccc21)N/N=C/c1c(O)ccc2ccccc12 = criterion not met
Cc1nccn1CCC(=O)N/N=C/c1c(O)ccc2ccccc12 = criterion not met
Cc1nc2ccccc2n1CC(=O)N/N=C/c1c(O)ccc2ccccc12 = criterion not met

Query string: Could you tell me if the measured solubility kinetic of Cc1nc2ccccc2n1CCC(=O)N/N=C/c1c(O)ccc2ccccc12 reaches 90 µM or more?
Result string: criterion not met

====

Each entry below lists one item and its recorded solubility kinetic value.
run description: Solubility of the compound by light scattering fluorescence spectrophotometry
Assay type: physicochemical
The figure you give is taken to be in µM; do not add the unit.

Some solved cases for reference:
Cc1nc2cc(Cl)c(Cl)cc2n1CCC(=O)N/N=C/c1c(O)ccc2ccccc12 = 90
Cc1nc2cnccc2n1CCC(=O)N/N=C/c1c(O)ccc2ccccc12 = 90

Field: next compound
Query string: Item under review: CN(C)Cc1nc2ccccc2n1CCC(=O)N/N=C/c1c(O)ccc2ccccc12 . Reported solubility kinetic?
Result string: 90
